// cross-study collection: pIC50 for Dihydrofolate reductase (Rattus norvegicus, UniProt Q920D2)
pIC50: −log10 of the molar value.
outcome-measure: pIC50

1 = COc1ccc(OC)c(CCc2csc3nc(N)nc(N)c23)c1
2 = Nc1nc(N)c2cc(COC(=O)c3ccc(C(=O)N[C@H](CCC(=O)O)C(=O)O)cc3)ccc2n1
3 = CCc1nc(N)nc(N)c1-c1ccc(Cl)c(/N=N/N(CCOC(C)=O)Cc2cc(OC)c(OC)c(OC)c2)c1
4 = Nc1nc(N)c2nc(CSc3ccccc3)cnc2n1
Which order do the items above take when sorted by pIC50 from high to low? Return the labels ranked in the requested order, please.
2, 3, 1, 4

a = Cc1c(CN(C)c2ccccc2Cl)cnc2nc(N)nc(N)c12
b = COc1ccc(CCc2cnc3nc(N)nc(N)c3c2)cc1OC
Just tell me: smaller pIC50 value, a or b ? Answer with the label corresponding to your selection.
b
